# target system: T1, Recombinant Human DLL4 (delta-like protein 4) (human, UniProt Q9NR61 27-524)
# T1 construct: also called rHuman DLL4; Delta-like 4
# procedure text: ECL (MSD) multispot binding assay, Fab on immobilised recombinant human DLL4
Reported ECL signal values are given for each entry in this list.
value type: ECL signal

binder | value type | numeric value
Fab VH5-51_IGHD5-18*01>3_IGHJ4*01 G100K/G104T (H:KT) & V3-4_IGLJ1*01 S57A (Fab, V domains shown, Fab (CH1 with His6/Flag tags from Plasmid A, lambda CL from Plasmid E); also called G100K/G104T & S57A) VH: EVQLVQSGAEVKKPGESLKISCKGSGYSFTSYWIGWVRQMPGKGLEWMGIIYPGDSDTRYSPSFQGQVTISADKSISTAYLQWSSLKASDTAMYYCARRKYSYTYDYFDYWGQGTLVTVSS VL: QTVVTQEPSFSVSPGGTVTLTCGLSSGSVSTSYYPSWYQQTPGQAPRTLIYSTNTRASGVPDRFSGSILGNKAALTITGAQADDESDYYCVLYMGSGISYVFGTGTKVTVL | ECL signal | 12600
Fab VH5-51_IGHD5-18*01>3_IGHJ4*01 G100K/G104T (H:KT) & V3-4_IGLJ1*01 S58A (Fab, V domains shown, Fab (CH1 with His6/Flag tags from Plasmid A, lambda CL from Plasmid E); also called G100K/G104T & S58A) VH: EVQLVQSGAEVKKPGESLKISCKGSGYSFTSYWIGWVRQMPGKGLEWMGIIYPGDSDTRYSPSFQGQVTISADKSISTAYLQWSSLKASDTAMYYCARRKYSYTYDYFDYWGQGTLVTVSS VL: QTVVTQEPSFSVSPGGTVTLTCGLSSGSVSTSYYPSWYQQTPGQAPRTLIYSTNTRSAGVPDRFSGSILGNKAALTITGAQADDESDYYCVLYMGSGISYVFGTGTKVTVL | ECL signal | 12600
Fab VH5-51_IGHD5-18*01>3_IGHJ4*01 G100K/G104T (H:KT) & V3-4_IGLJ1*01 (wildtype light chain) (Fab, V domains shown, Fab made in E. coli; VH was cloned into Plasmid A (CH1, His6 and Flag tags) and lambda VL into Plasmid E (lambda CL); also called H:KT & L:wt; KT double mutant) VH: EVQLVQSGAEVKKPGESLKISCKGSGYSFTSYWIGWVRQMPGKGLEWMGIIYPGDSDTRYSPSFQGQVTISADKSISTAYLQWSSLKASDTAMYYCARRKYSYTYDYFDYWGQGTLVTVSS VL: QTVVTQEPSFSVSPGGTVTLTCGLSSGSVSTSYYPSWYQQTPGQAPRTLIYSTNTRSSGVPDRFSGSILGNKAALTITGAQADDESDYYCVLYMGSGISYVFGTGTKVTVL | ECL signal | 9360
Fab VH5-51_IGHD5-18*01>3_IGHJ4*01 G100K/G104T (H:KT) & V3-4_IGLJ1*01 S52A (Fab, V domains shown, Fab (CH1 with His6/Flag tags from Plasmid A, lambda CL from Plasmid E); also called G100K/G104T & S52A) VH: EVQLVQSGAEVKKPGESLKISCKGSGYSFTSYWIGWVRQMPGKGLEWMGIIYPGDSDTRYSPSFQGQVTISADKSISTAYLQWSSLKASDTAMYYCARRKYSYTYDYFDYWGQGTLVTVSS VL: QTVVTQEPSFSVSPGGTVTLTCGLSSGSVSTSYYPSWYQQTPGQAPRTLIYATNTRSSGVPDRFSGSILGNKAALTITGAQADDESDYYCVLYMGSGISYVFGTGTKVTVL | ECL signal | 15200
Fab VH5-51_IGHD5-18*01>3_IGHJ4*01 G100K/G104T (H:KT) & V3-4_IGLJ1*01 T55A (Fab, V domains shown, Fab (CH1 with His6/Flag tags from Plasmid A, lambda CL from Plasmid E); also called G100K/G104T & T55A) VH: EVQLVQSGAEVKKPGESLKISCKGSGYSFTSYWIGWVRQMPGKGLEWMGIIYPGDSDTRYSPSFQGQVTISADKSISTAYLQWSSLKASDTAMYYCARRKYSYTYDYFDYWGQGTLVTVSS VL: QTVVTQEPSFSVSPGGTVTLTCGLSSGSVSTSYYPSWYQQTPGQAPRTLIYSTNARSSGVPDRFSGSILGNKAALTITGAQADDESDYYCVLYMGSGISYVFGTGTKVTVL | ECL signal | 12700
Fab VH5-51_IGHD5-18*01>3_IGHJ4*01 G100K/G104T (H:KT) & V3-4_IGLJ1*01 T53A (Fab, V domains shown, Fab (CH1 with His6/Flag tags from Plasmid A, lambda CL from Plasmid E); also called G100K/G104T & T53A) VH: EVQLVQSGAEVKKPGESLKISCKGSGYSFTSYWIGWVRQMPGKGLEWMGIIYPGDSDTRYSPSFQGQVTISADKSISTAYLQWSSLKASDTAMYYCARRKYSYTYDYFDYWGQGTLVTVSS VL: QTVVTQEPSFSVSPGGTVTLTCGLSSGSVSTSYYPSWYQQTPGQAPRTLIYSANTRSSGVPDRFSGSILGNKAALTITGAQADDESDYYCVLYMGSGISYVFGTGTKVTVL | ECL signal | 13200
